Field: pIC50. Provide a value for each of the compounds that follow.
System: PC-3
ASSAY_PROTOCOL: Cytotoxicity against human p53 deficient PC3 cells after 72 hrs by SRB assay
Assay type: functional, cell-based
MEASUREMENT_SETUP: PC-3, 72 h
pIC50: −log10 of the molar value.

Here's what some known entries look like.
- TEST_SMILES: "Clc1ccc(-c2sc3ncnc(NC4CCCCC4)c3c2-c2ccc(Cl)cc2)cc1"
  DATA_VALUE: "< 4.30"
- TEST_SMILES: "Clc1ccc(-c2sc3ncnc(N4CCOCC4)c3c2-c2ccc(Cl)cc2)cc1"
  DATA_VALUE: "< 4.30"

Okay, next one:
Report pIC50 under test system PC-3 for Nc1sc(-c2ccc(Br)cc2)c(-c2ccc(Cl)cc2)c1C(=O)N1CCOCC1 .
< 4.30
